Test: Dissolution performance test: solubility in 3-ethyl-3-hydroxymethyl oxetane monomer
Assay type: physicochemical
Settings: Table 3; maximum number of grams dissolved in 100 g 3-ethyl-3-hydroxymethyl oxetane monomer at 20° C.
For each entry below, report its Solubility value.
Give bare numbers, in g.

>>> recorded_value("Cc1ccc([S+](c2ccccc2)c2ccccc2)cc1 [Compound B-2, reference compound]")
20.6
>>> recorded_value("Cc1ccc([S+](c2ccc(Sc3ccccc3)cc2)c2ccc(C)c([N+](=O)[O-])c2)cc1[N+](=O)[O-]")
22.3
>>> recorded_value("Cc1ccc(-[s+]2c3ccccc3c(=O)c3cc(C(C)C)ccc32)cc1F (centres unmarked)")
23.5
>>> recorded_value("Cc1ccc([S+](c2ccc(C)c(F)c2)c2ccc(C)c(F)c2)cc1 [Compound A-3]")
22.5
>>> recorded_value("Cc1ccc([S+](c2ccc(Cc3ccccc3)cc2)c2ccc(C)c(F)c2)cc1F")
23.5

Give Solubility for each listed item.
1. Cc1ccc([S+](c2ccccc2)c2ccc(/C=C/c3ccccc3)cc2)cc1F (centres unmarked)
2. Cc1ccc([S+](c2ccccc2)c2ccccc2)cc1C(F)(F)F
3. CCc1ccc([S+](c2ccc(OC)cc2)c2ccc(CC)c(F)c2)cc1F
4. Cc1ccc([S+](c2ccc(-c3ccccc3)cc2)c2ccc(C)c(F)c2)cc1F
5. Cc1ccc([S+](c2ccc(C)c(F)c2)c2ccc3c(c2)Cc2ccccc2-3)cc1F
6. Cc1ccc([S+](c2ccc(Sc3ccccc3)cc2)c2ccc(C)c(F)c2)cc1F
7. Cc1ccc([S+](c2ccc(/C=C/c3ccccc3)cc2)c2ccc(C)c(F)c2)cc1F
8. COc1ccc([S+](c2ccc(C(C)=O)cc2)c2ccc(C(C)=O)cc2)cc1F

23.5
19.2
26.4
23.4
22.3
24.5
22.4
23.4
